Numbers sourced from ChEMBL document CHEMBL4400507.

# assayed system: Transient receptor potential cation channel subfamily V member 1 (Homo sapiens)
# test method notes: Agonist activity at human TRPV1 assessed as increase in intracellular calcium level at 10 uM relative to control
# Format: cell-based
Note to self: values exactly at 4% are condition met. So Activity at or above 4% is condition met, below is condition not met.

[ask] Is Activity at least 4%? Consider `CN1CCN(c2nc3cccc(F)c3c(=O)n2-c2ccc(OC(F)(F)F)cc2)CC1`
[reply] condition not met

[ask] Is Activity at least 4%? Consider `CN1CCN(c2nc3c(F)cccc3c(=O)n2-c2ccc(OC3CCOCC3)cc2)CC1`
[reply] condition met

[ask] Is Activity at least 4%? Consider `CN1CCN(c2nc3cc(F)ccc3c(=O)n2-c2ccc(OC(F)(F)F)cc2)CC1`
[reply] condition met

[ask] Is Activity at least 4%? Consider `CN1CCN(c2nc3c(F)cccc3c(=O)n2-c2ccc(SC(F)(F)F)cc2)CC1`
[reply] condition not met

[ask] Is Activity at least 4%? Consider `CN1CCN(c2nc3ccc(F)cc3c(=O)n2-c2ccc(OC(F)(F)F)cc2)CC1`
[reply] condition met

[ask] Is Activity at least 4%? Consider `CN1CCN(c2nc3c(F)cccc3c(=O)n2-c2ccc(Oc3ccc(F)cc3)cc2)CC1`
[reply] condition not met

[ask] Is Activity at least 4%? Consider `CN1CCN(c2nc3c(F)cccc3c(=O)n2-c2ccc(Cc3ccccc3)cc2)CC1`
[reply] condition not met

[ask] Is Activity at least 4%? Consider `CN1CCN(c2nc3c(F)cccc3c(=O)n2-c2ccc(OC(F)(F)F)cc2)CC1`
[reply] condition not met

[ask] Is Activity at least 4%? Consider `CN1CCN(c2nc3c(F)cccc3c(=O)n2-c2ccc(Oc3ccccc3)cc2)CC1`
[reply] condition not met

###

# assayed system: Transient receptor potential cation channel subfamily V member 4 (Homo sapiens, UniProt Q9HBA0)
# Sequence (Q9HBA0 whole entry): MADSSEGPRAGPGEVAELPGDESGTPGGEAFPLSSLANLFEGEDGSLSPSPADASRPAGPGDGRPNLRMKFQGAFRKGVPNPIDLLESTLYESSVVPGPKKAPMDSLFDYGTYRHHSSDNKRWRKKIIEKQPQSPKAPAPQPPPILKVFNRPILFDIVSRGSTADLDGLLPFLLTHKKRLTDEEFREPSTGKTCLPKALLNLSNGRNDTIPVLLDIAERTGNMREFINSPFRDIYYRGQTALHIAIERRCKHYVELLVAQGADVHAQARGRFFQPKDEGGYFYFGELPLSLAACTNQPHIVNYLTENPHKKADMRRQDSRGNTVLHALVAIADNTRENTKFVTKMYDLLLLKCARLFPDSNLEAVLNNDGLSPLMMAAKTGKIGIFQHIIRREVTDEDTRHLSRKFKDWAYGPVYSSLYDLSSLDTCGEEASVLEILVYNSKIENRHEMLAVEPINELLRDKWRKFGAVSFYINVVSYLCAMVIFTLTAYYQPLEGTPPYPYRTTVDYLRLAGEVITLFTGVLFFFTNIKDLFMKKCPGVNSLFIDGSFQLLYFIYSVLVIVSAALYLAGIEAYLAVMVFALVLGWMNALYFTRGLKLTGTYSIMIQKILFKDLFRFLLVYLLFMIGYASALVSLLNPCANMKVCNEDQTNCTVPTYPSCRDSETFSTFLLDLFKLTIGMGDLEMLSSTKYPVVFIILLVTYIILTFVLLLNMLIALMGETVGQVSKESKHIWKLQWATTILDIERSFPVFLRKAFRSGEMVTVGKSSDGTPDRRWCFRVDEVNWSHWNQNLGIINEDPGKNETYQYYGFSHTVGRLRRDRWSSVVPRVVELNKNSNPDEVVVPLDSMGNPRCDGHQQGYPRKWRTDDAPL
# test method notes: Agonist activity at recombinant human TRPV4 expressed in […] cells at 10 uM by SOX9 luciferase reporter gene assay
# Type: cell-based
measure: Activity (%)
Numeric answer only, unit % assumed.

[ask] Item under review: `COc1ccc(-n2c(N3CCN(C)CC3)nc3cc(F)ccc3c2=O)cc1` . Reported Activity?
[reply] 42.2

[ask] Item under review: `CN1CCN(c2nc3cc(F)ccc3c(=O)n2-c2ccc(C(F)(F)F)cc2)CC1(C)C` . Reported Activity?
[reply] 5

[ask] Item under review: `CC(C)C[C@H]1CN(c2nc3cc(F)ccc3c(=O)n2-c2ccc(C(F)(F)F)cc2)CCN1C` . Reported Activity?
[reply] 0.9

[ask] Item under review: CCOC(=O)c1ccc(-n2c(N3CCC(N(C)C)C3)nc3c(F)cccc3c2=O)cc1 (centres undefined) . Reported Activity?
[reply] 2.2

[ask] Item under review: `Cc1ccc(-n2c(N3CCN(C)CC3)nc3c(Cl)cccc3c2=O)cc1` . Reported Activity?
[reply] 9

[ask] Item under review: `CN1CCN(c2nc3cc(F)ccc3c(=O)n2-c2ccc(C(F)(F)F)cc2)CC12CC2` . Reported Activity?
[reply] 1.2

[ask] Item under review: `Cc1cccc(-n2c(N3CCN(C)CC3)nc3c(Cl)cccc3c2=O)c1` . Reported Activity?
[reply] 1.5

[ask] Item under review: `COc1cccc2c(=O)n(-c3ccc(C)cc3)c(N3CCN(C)CC3)nc12` . Reported Activity?
[reply] 1.3

[ask] Item under review: `COc1ccc(-n2c(N3CCN(C)CC3)nc3ccccc3c2=O)cc1` . Reported Activity?
[reply] 13.2

[ask] Item under review: `CCOC(=O)c1ccc(-n2c(N3CCN(C)CC3)nc3c(Br)cccc3c2=O)cc1` . Reported Activity?
[reply] 7.8

[ask] Item under review: `CN1CCN(c2nc3c(Cl)cccc3c(=O)n2-c2ccc(Cl)cc2)CC1` . Reported Activity?
[reply] 19.9

[ask] Item under review: `COc1ccc(-n2c(N3CCNCC3)nc3cc(F)ccc3c2=O)cc1` . Reported Activity?
[reply] 1.8

[ask] Item under review: `CN1CCN(c2nc3cc(F)ccc3c(=O)n2-c2ccc(C(F)(F)F)cc2)CC1=O` . Reported Activity?
[reply] 1.8

[ask] Item under review: `Cc1ccccc1-n1c(N2CCN(C)CC2)nc2c(Cl)cccc2c1=O` . Reported Activity?
[reply] 0.4

[ask] Item under review: `COc1ccc(-n2c(N(C)CCN(C)C)nc3cc(F)ccc3c2=O)cc1` . Reported Activity?
[reply] 0

[ask] Item under review: `CCOC(=O)c1ccc(-n2c(N3CCN(C)CC3)nc3c(Cl)cccc3c2=O)cc1` . Reported Activity?
[reply] 29.4

[ask] Item under review: `CCN1CCN(c2nc3cc(F)ccc3c(=O)n2-c2ccc(OC)cc2)CC1` . Reported Activity?
[reply] 41

[ask] Item under review: `CCOC(=O)c1ccc(-n2c(N3CCN(C(C)C)CC3)nc3c(F)cccc3c2=O)cc1` . Reported Activity?
[reply] 1.9

[ask] Item under review: CCOC(=O)c1ccc(-n2c(N(C)C3CCN(C)C3)nc3c(F)cccc3c2=O)cc1 (centres undefined) . Reported Activity?
[reply] 0.3

###

Please go through the items and note down their log10 ECmax.
# assayed system: Transient receptor potential cation channel subfamily V member 4 (Homo sapiens, UniProt Q9HBA0)
# test method notes: Agonist activity at recombinant human TRPV4 expressed in […] cells by SOX9 luciferase reporter gene assay
# Assay type: cell-based
Transform log10 | Measure ECmax | Unit nM

[ask] Item under review: `CN1CCN(c2nc3c(F)cccc3c(=O)n2-c2ccc(Cc3ccccc3)cc2)CC1` . Reported log10 ECmax?
[reply] 2.49

[ask] Item under review: `COc1ccc(-n2c(N3CCN(C)CC3)nc3cc(F)ccc3c2=O)cc1` . Reported log10 ECmax?
[reply] 3.70

[ask] Item under review: `CN1CCN(c2nc3c(F)cccc3c(=O)n2-c2ccc(OC3CCOCC3)cc2)CC1` . Reported log10 ECmax?
[reply] 3.40

[ask] Item under review: `CC(C)c1ccc(-n2c(N3CCN(C)CC3)nc3c(F)cccc3c2=O)cc1` . Reported log10 ECmax?
[reply] 3.40

[ask] Item under review: `CCOC(=O)c1ccc(-n2c(N3CCN(C)CC3)nc3c(F)cccc3c2=O)cc1` . Reported log10 ECmax?
[reply] 2.80

[ask] Item under review: `CN1CCN(c2nc3c(F)cccc3c(=O)n2-c2ccc(Oc3ccc(F)cc3)cc2)CC1` . Reported log10 ECmax?
[reply] 1.30

[ask] Item under review: `CN1CCN(c2nc3c(F)cccc3c(=O)n2-c2ccc(C(F)(F)F)cc2)CC1` . Reported log10 ECmax?
[reply] 3.40

[ask] Item under review: `CN1CCN(c2nc3cc(F)ccc3c(=O)n2-c2ccc(C(F)(F)F)cc2)CC1(C)C` . Reported log10 ECmax?
[reply] 4.00

[ask] Item under review: `CN1CCN(c2nc3ccc(F)cc3c(=O)n2-c2ccc(OC(F)(F)F)cc2)CC1` . Reported log10 ECmax?
[reply] 3.40

[ask] Item under review: `CN1CCN(c2nc3c(F)cccc3c(=O)n2-c2ccc(Oc3ccccc3)cc2)CC1` . Reported log10 ECmax?
[reply] 1.59

[ask] Item under review: `CN1CCN(c2nc3c(F)cccc3c(=O)n2-c2ccc(SC(F)(F)F)cc2)CC1` . Reported log10 ECmax?
[reply] 2.19

[ask] Item under review: `CN1CCN(c2nc3c(F)cccc3c(=O)n2-c2ccc(OC(F)(F)F)cc2)CC1` . Reported log10 ECmax?
[reply] 2.80

###

Please go through the items and note down their EC50.
# assayed system: UniProt:Q9HBA0
# test method notes: Agonist activity at recombinant human TRPV4 expressed in HEK293 cells assessed as increase in intracellular calcium level after 30 mins by Fura-2 AM/Pluronic F-127 probe based fluorescence assay
Numeric answer only, unit nM assumed.

[ask] Item under review: `CN1CCN(c2nc3c(F)cccc3c(=O)n2-c2ccc(Oc3ccccc3)cc2)CC1` . Reported EC50?
[reply] 125

[ask] Item under review: `CC(C)C[C@H](NC(=O)c1cc2ccccc2s1)C(=O)NCCCN(C)S(=O)(=O)c1ccc(Cl)cc1Cl` . Reported EC50?
[reply] 740

[ask] Item under review: `COc1ccc(-n2c(N3CCN(C)CC3)nc3cc(F)ccc3c2=O)cc1` . Reported EC50?
[reply] 4700

[ask] Item under review: `CC(C)C[C@H](NC(=O)c1cc2ccccc2s1)C(=O)N1CCN(C(=O)[C@H](CO)NS(=O)(=O)c2ccc(Cl)cc2Cl)CC1` . Reported EC50?
[reply] 49

[ask] Item under review: `CN1CCN(c2nc3c(F)cccc3c(=O)n2-c2ccc(OC(F)(F)F)cc2)CC1` . Reported EC50?
[reply] 280

[ask] Item under review: `CN1CCN(c2nc3cccc(F)c3c(=O)n2-c2ccc(OC(F)(F)F)cc2)CC1` . Reported EC50?
[reply] 1180

[ask] Item under review: `CN1CCN(c2nc3c(F)cccc3c(=O)n2-c2ccc(C(F)(F)F)cc2)CC1` . Reported EC50?
[reply] 1440

[ask] Item under review: `CN1CCN(c2nc3c(F)cccc3c(=O)n2-c2ccc(Cc3ccccc3)cc2)CC1` . Reported EC50?
[reply] 670

[ask] Item under review: `CN1CCN(c2nc3c(F)cccc3c(=O)n2-c2ccc(OC3CCOCC3)cc2)CC1` . Reported EC50?
[reply] 870
